# CONDITION_NOTES: buffer; pH 7.4; 200.0 µM
PROPERTY: solubility kinetic

>>> result("COc1ccc(S(=O)(=O)NC2CC(C)(C)NC(C)(C)C2)cc1")
"> 49 µg/mL"
>>> result("Cc1noc(C)c1S(=O)(=O)N1CCC(C(=O)O)CC1")
"> 43.2 µg/mL"

Now look at this one.
*Q* Quick check: solubility kinetic of Cc1ccc(C(=O)NCCCN2CCOCC2)c(Cl)c1 ?
*A* > 44.5 µg/mL

----------
# CONDITION_NOTES: buffer; pH 7.4; 200.0 µM
PROPERTY: log10 solubility kinetic (log10 of the value in µg/mL)
Heads up: the numbers are on a log10 scale; they represent solubility kinetic in µg/mL.

*Q* Returns the measured log10 solubility kinetic for the input compound. Input: O=C(C#Cc1ccccc1)Nc1cccc(F)c1
*A* 0.94

*Q* What about this compound? COc1ccccc1N(C)S(=O)(=O)c1ccc(Cl)c(C(=O)NCc2ccco2)c1
*A* 1.68

*Q* Thanks! And COc1ccc(N=C2NC(=O)/C(=C\c3ccco3)S2)cc1 ?
*A* 0.41

*Q* Another compound to look at: Cc1[nH]c(=O)[nH]c(=O)c1S(=O)(=O)Nc1ccc(S(N)(=O)=O)cc1
*A* 1.69

*Q* Next compound up: Cc1ccc(C(=O)C(C)OC(=O)Cc2c[nH]c3ccccc23)cc1 (stereo unspecified)
*A* 0.86

*Q* Repeat with Clc1ccccc1Nc1nc2ccccc2o1
*A* 0.36

*Q* Okay, and O=C(CSC(=S)N1CCCCC1)Nc1ncc2c(n1)CCCC2=O ?
*A* 1.05

*Q* Similarly, COc1cccc(C2Nc3ccccc3NC3=C2C(=O)CC(C)(C)C3)c1 (stereo unspecified) ?
*A* 1.60

----------
# CONDITION_NOTES: buffer; pH 7.4; 200.0 µM
Label criterion met for high-side solubility kinetic (at or above 9 µg/mL) and criterion not met for low-side solubility kinetic (below it).

Please review the following examples before continuing.
>>> answer_label("CCCCN(C(=O)C1CC1)C1CCS(=O)(=O)C1 (stereo unspecified)")
"criterion met"
>>> answer_label("O=C(O)CN1C(=O)NC2(CCc3ccccc32)C1=O (stereo unspecified)")
"criterion met"
>>> answer_label("CC(=O)Nc1nc(C)cs1")
"criterion met"
>>> answer_label("CN(CC(=O)Nc1ccc(F)c(F)c1F)C(=O)C1CCCO1 (stereo unspecified)")
"criterion met"
>>> answer_label("O=C(c1ccc(Cl)cc1Cl)N1CCN(c2ccccn2)CC1")
"criterion met"
>>> answer_label("COc1cc(C2NC(=O)NC(C)=C2C(C)=O)ccc1O (stereo unspecified)")
"criterion met"
>>> answer_label("COc1ccc(-c2csc(-c3ccc(O)cc3)n2)cc1")
"criterion not met"
>>> answer_label("CC(C)(C)P(=O)(N1CCOCC1)N1CCOCC1")
"criterion met"
>>> answer_label("COc1cc(NC(=S)N2CCOCC2)c(OC)cc1Cl")
"criterion met"
>>> answer_label("Cc1nc2ccccc2c(=O)n1NC(=O)c1cccc(Cl)c1")
"criterion met"

*Q* Evaluate Cc1cc(C)nc(SCC(=O)NC(=O)c2ccccc2O)n1 : solubility kinetic at minimum 9 µg/mL?
*A* criterion met

*Q* Continue with CC[C@H](C)[C@H](NC(N)=O)C(=O)Nc1ccc2c(c1)OCO2
*A* criterion met

*Q* Please give the result for Cn1c(S(=O)(=O)Cc2ccc(Cl)cc2)nc2ccccc21 too.
*A* criterion not met

*Q* Then this molecule: Cc1cc(C)c(NC(=O)c2cccc(NC(=O)c3ccco3)c2)c(C)c1
*A* criterion met

*Q* CCOC(=O)c1cc(-c2c(Cl)cccc2Cl)no1 ?
*A* criterion met

*Q* And then CC(C)OCCCNc1ncnc2c1nc1n2CCCC1 , what is it?
*A* criterion met

*Q* Same read-out for COC(=O)CSc1nc(C)c2c(n1)CCCC2 ?
*A* criterion met

*Q* Further, for COc1ccc(CNC(=O)C(C)OC(=O)c2cccc(N(C)C)c2)cc1 (stereo unspecified) ?
*A* criterion met

*Q* Next: CCn1c(=S)[nH]c2cc(C(=O)O)ccc21
*A* criterion met

*Q* For COc1ccc2[nH]cc(C(=O)CN3CCCC(C)(C)C3)c2c1 then?
*A* criterion met

*Q* // query: Oc1ccccc1N1CCN(C(c2ccccc2)c2ccccc2)CC1
*A* criterion not met

*Q* What do you have for COc1ccccc1OCC(=O)NCCCN1CCOCC1 ?
*A* criterion met

*Q* And then O=C(CCNC(=O)c1ccco1)Nc1ccc(F)c(Cl)c1 , what is it?
*A* criterion met

*Q* Next up: CN1CCN(c2c(/C=N/O)c3ccccc3n2C)CC1
*A* criterion met

*Q* Ok, now CCc1ccc(OC(=O)c2cncc(Br)c2)cc1
*A* criterion not met

*Q* Subsequent entry: N/C(=N\OC(=O)c1cccc(F)c1)c1cccc([N+](=O)[O-])c1
*A* criterion not met

*Q* Cool, now Cc1cc(C)[n+](Cc2ccccc2)cc1C(N)=O.[Cl-]
*A* criterion met

Data origin: PubChem BioAssay AID1996
